Assay: growth inhibitors of H69AR lung tumor, primary screen, human, duplicate replicates (AID 580);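 also: 100% = mean luminescence of untreated wells and 0% = no signal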
Details: H69AR lung tumor cells viability, ATP luminescence, 72 h; at 10 µM; stronger effect = lower value
Output 1 (yes) for records whose viability is lower than 90%, 0 (no) for records at or above 90%.

Strictly below 90% in viability? CCOC(=O)CC(=O)Nc1c(C)cc(C)cc1C 0 (no)

Strictly below 90% in viability? CCC(NS(=O)(=O)c1ccc(C)cc1)C(=O)N1CCC2(O)CCCCC2C1 (configuration not stated) 0 (no)

Strictly below 90% in viability? CC1=C(C(=O)OCc2ccccc2)C(c2ccc(C)o2)C2=C(CCCC2=O)N1 (configuration not stated) 0 (no)

Strictly below 90% in viability? OCCN1CCN(CC(O)COc2ccc3ccccc3c2)CC1 (configuration not stated) 0 (no)

Strictly below 90% in viability? COC(=O)c1c(C#N)c(N)nc2c1CCC2 0 (no)

Strictly below 90% in viability? Cc1cccc2c1N(CC(=O)OC(C)C)C(=O)C2=O 1 (yes)

Strictly below 90% in viability? O=c1c2c3nc4ccccc4nc3n(CC3CCCO3)c2ncn1CCc1ccccc1 (configuration not stated) 1 (yes)

Strictly below 90% in viability? Nc1nc(C2C(=O)CCCC2=O)cs1 0 (no)

Strictly below 90% in viability? Cc1ccc(-c2noc(-c3ccccc3C(=O)NCC3CCCO3)n2)cc1 (configuration not stated) 0 (no)

All figures here come from PubChem BioAssay.
